assayText: Clearance in rat at 1.0 mg/kg, po and 0.5 mg/kg, iv
Type: ADME, organism-based
recordedConditions: in vivo
parameterMeasured: clearance (mL/min/kg)

[A] Cc1c([C@@H](C)OC(=O)Nc2ccccc2)sc2ncnn12
[B] Cc1c([C@@H](C)OC(=O)Nc2cccc(F)c2)sc2nncn12
**Q:** Return label of the item with the larger clearance. Candidates: A , B . # respond with the chosen item's label
**A:** A
(A: 48 mL/min/kg, B: 33 mL/min/kg)

====

targetDesc: Metabotropic glutamate receptor 5 (Homo sapiens, UniProt P41594)
Sequence (P41594 whole entry): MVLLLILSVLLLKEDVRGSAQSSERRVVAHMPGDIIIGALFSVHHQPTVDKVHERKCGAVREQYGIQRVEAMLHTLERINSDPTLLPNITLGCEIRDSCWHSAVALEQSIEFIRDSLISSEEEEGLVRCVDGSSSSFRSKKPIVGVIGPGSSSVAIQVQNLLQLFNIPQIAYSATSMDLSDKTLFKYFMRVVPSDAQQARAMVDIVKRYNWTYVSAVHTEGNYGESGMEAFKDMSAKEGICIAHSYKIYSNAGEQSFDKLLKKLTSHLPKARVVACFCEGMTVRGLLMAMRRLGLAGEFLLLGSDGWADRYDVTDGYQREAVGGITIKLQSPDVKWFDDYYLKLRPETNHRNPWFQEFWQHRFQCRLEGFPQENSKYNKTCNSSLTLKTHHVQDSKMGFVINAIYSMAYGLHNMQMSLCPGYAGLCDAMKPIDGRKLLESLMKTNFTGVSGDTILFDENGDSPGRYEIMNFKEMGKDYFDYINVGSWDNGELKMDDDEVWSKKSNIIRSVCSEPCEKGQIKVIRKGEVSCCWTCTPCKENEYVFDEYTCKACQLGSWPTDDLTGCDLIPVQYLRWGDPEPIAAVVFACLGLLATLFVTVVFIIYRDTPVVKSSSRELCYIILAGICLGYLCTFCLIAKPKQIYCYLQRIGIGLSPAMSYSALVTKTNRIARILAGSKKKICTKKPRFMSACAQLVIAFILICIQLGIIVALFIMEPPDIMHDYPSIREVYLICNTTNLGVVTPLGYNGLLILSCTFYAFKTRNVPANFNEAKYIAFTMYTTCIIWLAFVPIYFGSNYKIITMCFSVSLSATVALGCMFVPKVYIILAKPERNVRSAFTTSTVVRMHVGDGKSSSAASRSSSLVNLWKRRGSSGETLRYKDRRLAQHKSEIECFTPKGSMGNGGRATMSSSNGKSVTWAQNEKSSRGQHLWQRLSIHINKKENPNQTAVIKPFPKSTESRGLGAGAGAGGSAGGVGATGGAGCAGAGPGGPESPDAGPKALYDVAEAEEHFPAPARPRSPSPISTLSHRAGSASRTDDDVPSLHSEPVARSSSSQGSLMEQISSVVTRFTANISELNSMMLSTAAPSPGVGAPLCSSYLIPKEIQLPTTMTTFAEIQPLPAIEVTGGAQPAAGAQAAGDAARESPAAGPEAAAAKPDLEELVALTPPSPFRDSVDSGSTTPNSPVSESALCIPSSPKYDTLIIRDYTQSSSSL
assayText: Antagonist activity at human mGluR5 expressed in CHO cells assessed as glutamate induced calcium mobilization
parameterMeasured: IC50 (nM)

[I] Cc1c(C(C)OC(=O)Nc2ccccc2)sc2nccn12 (configuration not stated)
[II] Cc1c([C@@H](C)OC(=O)Nc2cccc(F)c2)sc2nncn12
**Q:** Return label of the item with the larger IC50. Candidates: I , II . # respond with the chosen item's label
**A:** II
(II: 39.8 nM, I: 12.6 nM)
